Molecular target: Carbonic anhydrase 2 (Homo sapiens, UniProt P00918)
Reported Metric: pKi
Scale: negative log10 of molar concentration, which is what pKi denotes.

### Prompt Please provide the recorded pKi for c1ccc2[nH]ccc2c1 , tested on Carbonic anhydrase 2 (Homo sapiens, UniProt P00918).
### Response 4.49

---

Target: Carbonic anhydrase 3 (Bos taurus)
Sequence (Q3SZX4 whole entry): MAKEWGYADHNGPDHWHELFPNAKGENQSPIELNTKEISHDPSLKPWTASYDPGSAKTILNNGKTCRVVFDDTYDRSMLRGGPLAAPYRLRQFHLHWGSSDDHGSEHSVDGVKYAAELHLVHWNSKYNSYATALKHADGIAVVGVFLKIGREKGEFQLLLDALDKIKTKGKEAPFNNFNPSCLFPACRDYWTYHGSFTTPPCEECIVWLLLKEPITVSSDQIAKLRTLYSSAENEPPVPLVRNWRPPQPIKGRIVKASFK
Assay: Inhibition of bovine carbonic anhydrase 3 using 4-nitrophenylacetate as substrate after 3 mins using spectrophotometry by Lineweaver-Burk plot analysis
Reported Metric: pKi
Scale: negative log10 of molar concentration, which is what pKi denotes.

Some compounds with known pKi results, for comparison:
{"columns": ["Compound", "Recorded Measurement"],
 "data": [
  ["C[C@]12CC[C@@H]3c4ccc(OS(N)(=O)=O)cc4CC[C@H]3[C@@H]1CCC2=O [EMATE]", 4.91],
  ["Brc1ccc2c(c1)Cc1c-2[nH]c2ccccc12", 5.07],
  ["Fc1ccc2c(c1)Cc1c-2[nH]c2ccccc12", 5.06]
]}

### Prompt Give the measured pKi of COc1ccccc1OC .
### Response 5.37

### Prompt Give the measured pKi of Oc1ccccc1O .
### Response 5.46

### Prompt Give the measured pKi of c1ccc2[nH]ccc2c1 .
### Response 4.75

### Prompt Give the measured pKi of c1ccc2c(c1)Cc1c-2[nH]c2ccccc12 .
### Response 4.75

### Prompt Give the measured pKi of COc1ccc2c(c1)-c1[nH]c3ccccc3c1C2 .
### Response 4.81

### Prompt Give the measured pKi of COc1cc2c(c(OC)c1)-c1[nH]c3ccccc3c1C2 .
### Response 4.84

### Prompt Give the measured pKi of COc1ccc(OC)c2c1Cc1c-2[nH]c2ccccc12 .
### Response 4.95

### Prompt Give the measured pKi of Oc1cc(O)c2c(c1)Cc1c-2[nH]c2ccccc12 .
### Response 5.33

---

Biological target: Carbonic anhydrase 4 (Homo sapiens, UniProt P22748)
Sequence (P22748 whole entry): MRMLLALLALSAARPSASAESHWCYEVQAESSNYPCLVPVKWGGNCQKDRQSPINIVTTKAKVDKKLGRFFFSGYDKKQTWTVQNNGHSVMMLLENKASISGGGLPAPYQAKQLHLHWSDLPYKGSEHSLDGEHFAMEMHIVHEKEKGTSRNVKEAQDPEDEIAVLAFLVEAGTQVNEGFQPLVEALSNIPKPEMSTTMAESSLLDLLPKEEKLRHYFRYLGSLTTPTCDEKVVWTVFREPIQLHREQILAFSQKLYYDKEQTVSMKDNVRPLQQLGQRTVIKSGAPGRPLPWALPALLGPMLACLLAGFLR
We begin with a simple list: items and their reported pKi.
Scale: negative log10 of molar concentration, which is what pKi denotes.

{"columns": ["Molecule", "Measured Target", "pKi"],
 "data": [
  ["c1ccc2[nH]ccc2c1", "Carbonic anhydrase 4 (Homo sapiens, UniProt P22748)", 5.63]
]}

### Prompt Please provide the recorded pKi for C[C@]12CC[C@@H]3c4ccc(OS(N)(=O)=O)cc4CC[C@H]3[C@@H]1CCC2=O [EMATE] , tested on Carbonic anhydrase 4 (Homo sapiens, UniProt P22748).
### Response 5.98

---

This section lists Ki readings for Carbonic anhydrase 6 (Homo sapiens).
Answer with a number only, understood to be in nM.

### Prompt Please provide the recorded Ki for C[C@]12CC[C@@H]3c4ccc(OS(N)(=O)=O)cc4CC[C@H]3[C@@H]1CCC2=O [EMATE] , tested on Carbonic anhydrase 6 (Homo sapiens).
Sequence (P23280 whole entry): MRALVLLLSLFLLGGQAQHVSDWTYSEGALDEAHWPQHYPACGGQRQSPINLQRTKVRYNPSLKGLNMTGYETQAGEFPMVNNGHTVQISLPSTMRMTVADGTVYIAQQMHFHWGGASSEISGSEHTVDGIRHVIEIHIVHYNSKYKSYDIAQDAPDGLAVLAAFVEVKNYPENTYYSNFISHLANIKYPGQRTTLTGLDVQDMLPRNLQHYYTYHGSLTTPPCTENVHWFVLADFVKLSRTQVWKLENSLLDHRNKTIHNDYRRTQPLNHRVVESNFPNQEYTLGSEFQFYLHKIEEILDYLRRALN
### Response 1860

### Prompt Please provide the recorded Ki for c1ccc2[nH]ccc2c1 [INDOLE] , tested on Carbonic anhydrase 6 (Homo sapiens).
### Response 3630

---

This section lists Ki readings for Carbonic anhydrase 3 (Bos taurus, UniProt Q3SZX4).
Answer with a number only, understood to be in µM.

{"columns": ["Compound", "Measured Target", "Measurement Units", "Recorded Measurement"],
 "data": [
  ["CCOc1ccc2nc(S(N)(=O)=O)sc2c1 [ETHOXZOLAMIDE]", "Carbonic anhydrase 3 (Bos taurus, UniProt Q3SZX4)", "µM", 9.44]
]}

### Prompt Give the measured Ki of Oc1cccc2c1-c1[nH]c3ccccc3c1C2 .
### Response 9.62

### Prompt Give the measured Ki of Oc1ccc2c(c1O)Cc1c-2[nH]c2ccccc12 .
### Response 2.13

### Prompt Give the measured Ki of NS(=O)(=O)Cc1noc2ccccc12 [ZONISAMIDE] .
### Response 8.51
